- targetEntity: Recombinant (1-346) HPK1 (h) (Homo sapiens, UniProt Q92918)
- Construct: Recombinant (1-346) HPK1 (h) is incubated with 8 mM MOPS pH 7.0
- Sequence (Q92918 1-346): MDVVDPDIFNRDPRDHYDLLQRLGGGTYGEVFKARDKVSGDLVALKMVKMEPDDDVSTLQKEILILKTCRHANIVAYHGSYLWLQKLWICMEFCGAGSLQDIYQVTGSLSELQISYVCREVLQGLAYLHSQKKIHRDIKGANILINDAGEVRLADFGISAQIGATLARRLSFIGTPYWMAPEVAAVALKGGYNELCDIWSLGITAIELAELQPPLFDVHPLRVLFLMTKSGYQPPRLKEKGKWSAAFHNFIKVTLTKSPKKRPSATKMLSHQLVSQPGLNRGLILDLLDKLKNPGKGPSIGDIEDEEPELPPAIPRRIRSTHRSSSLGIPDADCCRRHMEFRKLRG
- methodNotes: HPK1 human STE kinase enzymatic radiometric assay
- Type: biochemical
- conditions: read-out: HPK1 IC50 nM Range
Structures can show the parent of a compound that is named as a salt.
readoutKind: IC50

molecule: CN(C)Cc1cccc(-c2nc(-c3ccc4c(c3)CCNC4=O)c(N)nc2F)c1
targetEntity: Recombinant (1-346) HPK1 (h) (Homo sapiens, UniProt Q92918)
IC50: 11 to 100 nM

molecule: CC(C)N1CCN(c2ccc(-c3nc(-c4ccc5c(=O)[nH]cc(F)c5c4)c(N)nc3F)cc2)CC1
targetEntity: Recombinant (1-346) HPK1 (h) (Homo sapiens, UniProt Q92918)
IC50: 0.1 to 10 nM

Ask | Look at this molecule and give its reported IC50. "C[C@@H]1CN(c2ccc(-c3nc(-c4ccc5c(c4)CCNC5=O)c(N)nc3F)cc2CN(C)C)CCO1"
Reply | 0.1 to 10 nM

Ask | What about "Nc1nc(F)c(-c2ccc(C3CCOCC3)c(CN3CCC3)c2)nc1-c1ccc2c(=O)[nH]cc(F)c2c1" ?
Reply | 0.1 to 10 nM

Ask | What about Nc1nc(F)c(-c2ccc(C3CCN(CC4CC4)CC3)cc2)nc1-c1cc(F)c2c(c1)CCNC2=O [Example I-13, Formate] ?
Reply | 0.1 to 10 nM

Ask | What about "Cc1cc2cc(-c3nc(-c4ccc(C5CCOCC5)c(CN(C)C)c4)c(F)nc3N)cc(F)c2c(=O)[nH]1" ?
Reply | 0.1 to 10 nM

Ask | What about "CCN(C)Cc1c(N2CCOCC2)ccc(-c2nc(-c3cc(F)c4c(c3)CCNC4=O)c(N)nc2F)c1F" ?
Reply | 11 to 100 nM
